- targetOfAssay: T1, ZFP SBS#714 (synthetic)
- T1 chain: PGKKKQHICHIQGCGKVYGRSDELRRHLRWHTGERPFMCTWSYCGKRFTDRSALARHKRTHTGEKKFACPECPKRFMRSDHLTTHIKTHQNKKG
- methodSummary: EMSA
- cond: tags: MBP fusion
pKd: −log10 of the molar value.
quantity: pKd

[[record]]
binder = "TGGGTCGCGG (dsDNA) DNA 1: TGGGTCGCGG DNA 2: CCGCGACCCA"
numericresult = 6.70

